Please respond with reported logD for every item in the list.
Assay: method code SF-AS, from PMID: 6686445
Conditions: pH 7.4
Keep the answer to the number alone.

[in] Determine its reported logD: "O=C1CN=C(c2c(F)cccc2F)c2cc(Cl)ccc2N1"
[out] 2.68

[in] Determine its reported logD: "COCN1C(=O)CN=C(c2ccccc2)c2cc(N)ccc21"
[out] 1.32

[in] Determine its reported logD: "O=C1CN=C(c2ccccc2Br)c2cc(Cl)ccc2N1"
[out] 3.17

[in] Determine its reported logD: "O=C1CN=C(c2ccccc2F)c2cc(Cl)ccc2N1"
[out] 2.7

[in] Determine its reported logD: "O=C1CN=C(c2ccccc2[N+](=O)[O-])c2cc([N+](=O)[O-])ccc2N1"
[out] 1.61

[in] Determine its reported logD: "CSc1ccc2c(c1)C(c1ccccc1)=NCC(=O)N2C"
[out] 2.95

[in] Determine its reported logD: "COc1ccccc1C1=NCC(=O)Nc2ccc(Cl)cc21"
[out] 2.63

[in] Determine its reported logD: "O=C1CN=C(c2ccccc2)c2cc(F)ccc2N1"
[out] 2.32

[in] Determine its reported logD: "CSc1ccccc1C1=NCC(=O)Nc2ccc(Cl)cc21"
[out] 2.99

[in] Determine its reported logD: "O=C1CN=C(c2ccccc2Cl)c2cc(Cl)ccc2N1"
[out] 3.15

[in] Determine its reported logD: "O=C1CN=C(c2ccccc2C(F)(F)F)c2ccccc2N1"
[out] 2.47

[in] Determine its reported logD: "O=C1CN=C(c2ccccc2)c2cc(C(F)(F)F)ccc2N1"
[out] 3.1

[in] Determine its reported logD: "COc1ccc(C2=NCC(=O)N(C)c3ccc(Cl)cc32)cc1"
[out] 3.15

[in] Determine its reported logD: "O=C1CN=C(c2ccccc2F)c2cc(Cl)c(Cl)cc2N1"
[out] 3.63

[in] Determine its reported logD: "CN1C(=O)CN=C(c2ccc(Cl)cc2)c2cc(F)ccc21"
[out] 3.1

[in] Determine its reported logD: "COCN1C(=O)CN=C(c2ccccc2Cl)c2cc(Cl)ccc21"
[out] 3.23

[in] Determine its reported logD: O=C1CN=C(c2ccccc2)c2cc([N+](=O)[O-])ccc2N1CC(O)CO (stereo unspecified)
[out] 0.96

[in] Determine its reported logD: "CN1C(=O)CN=C(c2ccccc2)c2cc(N)ccc21"
[out] 1.46

[in] Determine its reported logD: O=C1CN=C(c2ccccc2F)c2cc(Cl)ccc2N1CC(O)CO (stereo unspecified)
[out] 1.51

[in] Determine its reported logD: "O=C1CN=C(c2c(F)cccc2F)c2ccc(Cl)cc2N1"
[out] 2.88

[in] Determine its reported logD: "COc1cccc(C2=NCC(=O)Nc3ccc(Cl)cc32)c1"
[out] 3.14

[in] Determine its reported logD: "COc1ccc2c(c1)C(c1ccccc1)=NCC(=O)N2"
[out] 2.24

[in] Determine its reported logD: "O=C1CN=C(c2ccccc2F)c2cc([N+](=O)[O-])ccc2N1"
[out] 2.15

[in] Determine its reported logD: "CN1C(=O)CN=C(c2ccccc2F)c2cc(I)ccc21"
[out] 3.14

[in] Determine its reported logD: "CSCN1C(=O)CN=C(c2ccccc2)c2cc(Cl)ccc21"
[out] 3.32

[in] Determine its reported logD: "O=C1CN=C(c2ccccc2F)c2ccccc2N1"
[out] 2.38

[in] Determine its reported logD: "COCN1C(=O)CN=C(c2ccccc2F)c2cc(N)ccc21"
[out] 1.31

[in] Determine its reported logD: "N#Cc1ccc2c(c1)C(c1ccccc1)=NCC(=O)N2"
[out] 1.82

[in] Determine its reported logD: "O=C1CN=C(c2ccccc2C(F)(F)F)c2cc([N+](=O)[O-])ccc2N1"
[out] 2.51

[in] Determine its reported logD: "CN1C(=O)CN=C(c2ccccc2Cl)c2cc(Cl)ccc21"
[out] 3.12

[in] Determine its reported logD: "CN1C(=O)CN=C(c2ccccc2F)c2cc(N)ccc21"
[out] 1.3

[in] Determine its reported logD: "CCc1ccc2c(c1)C(c1ccccc1F)=NCC(=O)N2"
[out] 2.92

[in] Determine its reported logD: CC1N=C(c2ccccc2Cl)c2cc(Cl)ccc2N(C)C1=O (stereo unspecified)
[out] 3.4

[in] Determine its reported logD: "CC(=O)c1ccc2c(c1)C(c1ccccc1F)=NCC(=O)N2"
[out] 1.75

[in] Determine its reported logD: "CN1C(=O)CN=C(c2ccccc2F)c2cc(Cl)ccc21"
[out] 2.75

[in] Determine its reported logD: "O=C1CN=C(c2ccccc2)c2ccccc2N1"
[out] 2.18

[in] Determine its reported logD: "CSCN1C(=O)CN=C(c2ccccc2)c2cc(N)ccc21"
[out] 1.92

[in] Determine its reported logD: "O=C1CN=C(c2ccc(F)cc2)c2cc(Cl)ccc2N1"
[out] 2.9

[in] Determine its reported logD: "CN1C(=O)CN=C(c2c(Cl)cccc2Cl)c2cc(Cl)ccc21"
[out] 3.04

[in] Determine its reported logD: "Cc1ccccc1C1=NCC(=O)Nc2ccc(Cl)cc21"
[out] 3.12

[in] Determine its reported logD: "Cc1ccccc1C1=NCC(=O)N(C)c2ccc(Cl)cc21"
[out] 3.03
